B1: Tyrosine-protein kinase Lck, residues 63 to 120; numbered along this chain, P06239 (parent)
chain: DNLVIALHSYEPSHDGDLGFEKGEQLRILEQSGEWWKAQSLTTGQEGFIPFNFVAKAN

- Variants of: B1
- ASSAY_NAME: abundance fitness (aPCA) (normalised: wild type 0, dead -1); higher = more abundant; growth selection in yeast, the domain comes from the species named
- CONDITIONS: Homo sapiens
abundance fitness for assorted variants

>  <VARIANT_DESCRIPTOR>
T42S

>  <abundance fitness>
-0.031

$$$$
>  <VARIANT_DESCRIPTOR>
E21N

>  <abundance fitness>
-0.248

$$$$
>  <VARIANT_DESCRIPTOR>
D15G

>  <abundance fitness>
-0.196

$$$$
>  <VARIANT_DESCRIPTOR>
A6K

>  <abundance fitness>
-0.933

$$$$
>  <VARIANT_DESCRIPTOR>
Q25T

>  <abundance fitness>
0.078

$$$$
>  <VARIANT_DESCRIPTOR>
Q39A

>  <abundance fitness>
-0.361

$$$$
>  <VARIANT_DESCRIPTOR>
F48G

>  <abundance fitness>
-0.576

$$$$
>  <VARIANT_DESCRIPTOR>
K56M

>  <abundance fitness>
-0.146

$$$$
>  <VARIANT_DESCRIPTOR>
H8P

>  <abundance fitness>
-0.79

$$$$
>  <VARIANT_DESCRIPTOR>
Y10I

>  <abundance fitness>
-0.619

$$$$
>  <VARIANT_DESCRIPTOR>
F53I

>  <abundance fitness>
-0.156

$$$$
>  <VARIANT_DESCRIPTOR>
Q39Y

>  <abundance fitness>
-0.468

$$$$
>  <VARIANT_DESCRIPTOR>
T42Y

>  <abundance fitness>
-0.129

$$$$
>  <VARIANT_DESCRIPTOR>
L26R

>  <abundance fitness>
-0.726

$$$$
>  <VARIANT_DESCRIPTOR>
A57W

>  <abundance fitness>
-0.132

$$$$
>  <VARIANT_DESCRIPTOR>
P12I

>  <abundance fitness>
-0.506

$$$$
>  <VARIANT_DESCRIPTOR>
F20W

>  <abundance fitness>
-1.04

$$$$
>  <VARIANT_DESCRIPTOR>
S40W

>  <abundance fitness>
-0.989

$$$$
>  <VARIANT_DESCRIPTOR>
L3T

>  <abundance fitness>
-0.019

$$$$
>  <VARIANT_DESCRIPTOR>
N2M

>  <abundance fitness>
-0.075

$$$$
>  <VARIANT_DESCRIPTOR>
F48A

>  <abundance fitness>
-0.235

$$$$
>  <VARIANT_DESCRIPTOR>
E34G

>  <abundance fitness>
-0.13

$$$$
>  <VARIANT_DESCRIPTOR>
S9T

>  <abundance fitness>
-0.046

$$$$
>  <VARIANT_DESCRIPTOR>
K56V

>  <abundance fitness>
-0.118

$$$$
>  <VARIANT_DESCRIPTOR>
F48I

>  <abundance fitness>
-0.264

$$$$
>  <VARIANT_DESCRIPTOR>
W36R

>  <abundance fitness>
-0.213

$$$$
>  <VARIANT_DESCRIPTOR>
V54H

>  <abundance fitness>
-0.967

$$$$
>  <VARIANT_DESCRIPTOR>
K22H

>  <abundance fitness>
-0.593

$$$$
>  <VARIANT_DESCRIPTOR>
V4H

>  <abundance fitness>
-0.073

$$$$
>  <VARIANT_DESCRIPTOR>
E30C

>  <abundance fitness>
-0.265

$$$$
>  <VARIANT_DESCRIPTOR>
R27M

>  <abundance fitness>
-0.309

$$$$
>  <VARIANT_DESCRIPTOR>
S13T

>  <abundance fitness>
0.047

$$$$
>  <VARIANT_DESCRIPTOR>
S9L

>  <abundance fitness>
-0.84

$$$$
>  <VARIANT_DESCRIPTOR>
H8K

>  <abundance fitness>
0.285

$$$$
>  <VARIANT_DESCRIPTOR>
L3F

>  <abundance fitness>
-0.304

$$$$
>  <VARIANT_DESCRIPTOR>
V54Q

>  <abundance fitness>
-0.901

$$$$
>  <VARIANT_DESCRIPTOR>
S9W

>  <abundance fitness>
-0.923

$$$$
>  <VARIANT_DESCRIPTOR>
K37E

>  <abundance fitness>
-0.435

$$$$
